# kinact/KI listing for each entry below
Molecular target: Human Polymorphonuclear Leukocyte Elastase (Homo sapiens, UniProt P08246)
Sequence (P08246 30-267): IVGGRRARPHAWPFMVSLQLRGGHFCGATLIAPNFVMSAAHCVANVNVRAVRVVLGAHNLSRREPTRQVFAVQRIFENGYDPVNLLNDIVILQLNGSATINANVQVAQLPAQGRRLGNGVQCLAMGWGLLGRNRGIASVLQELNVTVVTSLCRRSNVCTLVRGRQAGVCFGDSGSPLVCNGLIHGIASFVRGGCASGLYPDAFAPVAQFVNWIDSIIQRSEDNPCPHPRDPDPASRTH
Assay: Inhibition of human polymorphonuclear leukocyte elastase via hydrolysis of Boc-AAPAN or Boc-AAPVN
Format: biochemical
Settings: pH 7.5, Table III; second order rate constant for inactivation of the enzyme; read-out: Kobs /[I]
result type: kinact/KI

>>> measurement("CCC[C@@H](NC(=O)N1C(=O)C(CC)(CC)[C@@H]1Oc1ccc(CN(CC)CCOCCOC)c(OC)c1)c1ccc(C)cc1")
"1.7e+06 M⁻¹ s⁻¹"
>>> measurement("CCC[C@@H](NC(=O)N1C(=O)C(CC)(CC)[C@@H]1Oc1ccc(CN(CCOC)CCOC)c(Cl)c1)c1ccc(C)cc1")
"1e+06 M⁻¹ s⁻¹"
>>> measurement("CCC[C@@H](NC(=O)N1C(=O)C(CC)(CC)[C@@H]1Oc1ccc(CN(CC)CCOC)cc1)c1ccc2occc2c1")
"1.1e+06 M⁻¹ s⁻¹"
>>> measurement("CCC[C@@H](NC(=O)N1C(=O)C(CC)(CC)[C@@H]1Oc1ccc(CN(C)C(C)COC)c(Cl)c1)c1ccc(C)cc1 (stereo partly drawn)")
"650000 M⁻¹ s⁻¹"
>>> measurement("CCC[C@@H](NC(=O)N1C(=O)C(CC)(CC)[C@@H]1Oc1ccc(CN(CC)CCOC)cc1)c1ccc2c(c1)OCO2")
"1.9e+06 M⁻¹ s⁻¹"
>>> measurement("CCC[C@@H](NC(=O)N1C(=O)C(CC)(CC)[C@@H]1Oc1ccc(CN(CC)C(C)COC)c(C)c1)c1ccc(C)cc1 (stereo partly drawn)")
"400000 M⁻¹ s⁻¹"
>>> measurement("CCC[C@@H](NC(=O)N1C(=O)C(CC)(CC)[C@@H]1Oc1ccc(CN(CC)CCOC)cc1)c1ccc(OC)cc1")
"1e+06 M⁻¹ s⁻¹"
>>> measurement("CCC[C@@H](NC(=O)N1C(=O)C(CC)(CC)[C@@H]1Oc1ccc(CN(CC)CCOC)c(Cl)c1)c1ccc(C)cc1")
"550000 M⁻¹ s⁻¹"
>>> measurement("CCC[C@@H](NC(=O)N1C(=O)C(CC)(CC)[C@@H]1Oc1ccc(CN(C)CCOC)c(Cl)c1)c1ccc(C)cc1")
"1e+06 M⁻¹ s⁻¹"
>>> measurement("CCC[C@@H](NC(=O)N1C(=O)C(CC)(CC)[C@@H]1Oc1ccc(CN(C)C(C)COC)c(OC)c1)c1ccc(C)cc1 (stereo partly drawn)")
"1.65e+06 M⁻¹ s⁻¹"
>>> measurement("CCC[C@@H](NC(=O)N1C(=O)C(CC)(CC)[C@@H]1Oc1ccc(CN(CC)CCOC)cc1)c1ccc(OCC)cc1")
"1.12e+06 M⁻¹ s⁻¹"
>>> measurement("CCC[C@@H](NC(=O)N1C(=O)C(CC)(CC)[C@@H]1Oc1ccc(C(COC)N(C)C)cc1)c1ccc2c(c1)OCO2 (mixture of isomers)")
"1.9e+06 M⁻¹ s⁻¹"
>>> measurement("CCC[C@@H](NC(=O)N1C(=O)C(CC)(CC)[C@@H]1Oc1ccc(C(COC)N(C)CCC)cc1)c1ccc2c(c1)OCO2 (mixture of isomers)")
"1.8e+06 M⁻¹ s⁻¹"
>>> measurement("CCC[C@@H](NC(=O)N1C(=O)C(CC)(CC)[C@@H]1Oc1cc(C)c(CN(C)CCOC)c(C)c1)c1ccc(C)cc1")
"300000 M⁻¹ s⁻¹"
>>> measurement("CCC[C@@H](NC(=O)N1C(=O)C(CC)(CC)[C@@H]1Oc1ccc(CN(CC)C(C)COC)c(OC)c1)c1ccc(C)cc1 (stereo partly drawn)")
"1.3e+06 M⁻¹ s⁻¹"
>>> measurement("CCC[C@@H](NC(=O)N1C(=O)C(CC)(CC)[C@@H]1Oc1ccc(CN(CC)C(C)COC)cc1)c1ccc2c(c1)OCO2 (stereo partly drawn)")
"1.6e+06 M⁻¹ s⁻¹"
>>> measurement("CCC[C@@H](NC(=O)N1C(=O)C(CC)(CC)[C@@H]1Oc1ccc(CN(CC)C(C)COC)cc1)c1ccc2occc2c1 (stereo partly drawn)")
"1.05e+06 M⁻¹ s⁻¹"
>>> measurement("CCC[C@@H](NC(=O)N1C(=O)C(CC)(CC)[C@@H]1Oc1ccc(CN(C)CCOC)cc1)c1ccc(OCC)cc1")
"1.3e+06 M⁻¹ s⁻¹"
